Test system: UACC-62 melanoma
Exercise: for every item that follows, state its recorded GI50.

Consider the following illustrative entries.
[
  {
    "MOLECULE": "Fc1ccc(-c2nc(-c3nc4ccc(Cl)cc4[nH]3)cc3c2[nH]c2ccccc23)cc1",
    "GI50": "2.28 µM"
  },
  {
    "MOLECULE": "CCN1CCN(CCOc2ccc(CNc3ccc4nc(CCC5CCCCC5)[nH]c4c3)cc2)CC1",
    "GI50": "1.93 µM"
  },
  {
    "MOLECULE": "N#Cc1ccc(Oc2nccc(-c3c(-c4ccc(F)cc4)ncn3C3CCNCC3)n2)cc1",
    "GI50": "> 25 µM"
  }
]

Record GI50 for all entries; do not skip any.
1. CN(C)CC(C(=O)c1ccccc1)c1ccccc1 (centres undefined)
2. C=C1CC[C@@H]2C(C)(C)[C@@H](O)CC[C@@]2(C)[C@@H]1COc1ccc2ccc(=O)oc2c1
3. Nc1nc(N)c2cc(CNc3ccc(Cl)c(Cl)c3)ccc2n1

1: 2.05 µM; 2: 10.2 µM; 3: 0.468 µM

Record GI50 for all entries; do not skip any.
1. CCCCCCN(CCCCCC)CCCNc1nccc2ccccc12
2. COc1ccc(Nc2c3ccccc3nc3c2c2ccccc2n3C)cc1

1. 1.69 µM
2. 11.4 µM

Summary: "O=C(Nc1cccc(Cl)c1)Nc1cccc(Cl)c1" , UACC-62 melanoma, GI50 = 3.69 µM

---

Test system: HOP-92 NSCLC
TEST_NAME: NCI tumour cell line growth inhibition, 48 h
Exercise: for every item that follows, state its recorded TGI.

Consider the following illustrative entries.
[
  {
    "COMPOUND": "COc1ccc(/C=C2/C(=O)N(C(=O)c3ccccc3O)N=C2C)cc1OC",
    "TARGET_OF_ASSAY": "HOP-92 NSCLC",
    "MEAS_VALUE": "> 100 µM"
  },
  {
    "COMPOUND": "CCOc1ccccc1NC(=O)C(=O)CC(=O)C1=C(C)Nc2ccccc2S1",
    "TARGET_OF_ASSAY": "HOP-92 NSCLC",
    "MEAS_VALUE": "> 100 µM"
  },
  {
    "COMPOUND": "COc1cc2cc3c4c(cc(OC)c(OC)c4c2cc1OC)CCN3C(=O)CCCC(=O)O",
    "TARGET_OF_ASSAY": "HOP-92 NSCLC",
    "MEAS_VALUE": "> 100 µM"
  },
  {
    "COMPOUND": "COc1ccc(/C=C/c2cc(OC)c(O[Si](C)(C)C(C)(C)C)c(OC)c2)cc1",
    "TARGET_OF_ASSAY": "HOP-92 NSCLC",
    "MEAS_VALUE": "> 100 µM"
  },
  {
    "COMPOUND": "C=CCCCCOC1C=CC(OC(C)=O)C(COC(C)=O)O1 (stereo not given)",
    "TARGET_OF_ASSAY": "HOP-92 NSCLC",
    "MEAS_VALUE": "> 100 µM"
  },
  {
    "COMPOUND": "O=C(NC(=O)c1cn(CCN2CCNCC2)c(=O)[nH]c1=O)OCc1ccccc1",
    "TARGET_OF_ASSAY": "HOP-92 NSCLC",
    "MEAS_VALUE": "> 100 µM"
  }
]

Record TGI for all entries; do not skip any.
1. O=C(CCCn1c2c(sc3ncccc32)c(=O)n2nnc(-c3ccccc3)c12)NCCc1cnc[nH]1
2. O=C(Nc1cccc(Cl)c1)Nc1cccc(Cl)c1
3. CCN(CC)CCN1C(=O)c2cccc3c(-c4ccc5c(c4)ncn5C4CCCCC4)ccc(c23)C1=O
4. CN(C)CC(C(=O)c1ccccc1)c1ccccc1 (stereo not given)

1: 39.5 µM; 2: > 100 µM; 3: 1.65 µM; 4: 9.54 µM
